# system-under-test: T1, ZIKV (prM80E) with a C-terminal myc-myc-hexahistidine tag (Zika virus, UniProt A0A024B7W1 104-694)
# T1 construct: also called ZIKV (prM80E)-mmH; ZIKV-mmH
# assay-protocol: SPR, mAb captured, 37C
test-readout: t½ pH 7.4/t½ pH 5.5
Lab note: jot the number down without any unit.

Entry H4H25703N (antibody, V domains shown) VH: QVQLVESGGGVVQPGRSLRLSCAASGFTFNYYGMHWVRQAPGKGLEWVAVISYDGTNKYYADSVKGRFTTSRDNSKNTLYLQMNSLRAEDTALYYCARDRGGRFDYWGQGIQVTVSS VL: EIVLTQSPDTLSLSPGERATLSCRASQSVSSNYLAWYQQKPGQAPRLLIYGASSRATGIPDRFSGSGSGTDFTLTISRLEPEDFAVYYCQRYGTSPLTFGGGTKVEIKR — recorded t½ pH 7.4/t½ pH 5.5 = 1.5

Entry H4H25619P (antibody, V domains shown) VH: QVQLVESGGGVVQPGRSLRLSCTASGFTFSTYGMHWVRHVPGKGLEWVAIVWYDGSDKSYAASVKGRFTISRDNSKNTLFLQMNSLRAEDTAVYYCARQGTYYYYGMDVWGQGTTVTVSS VL: DIQMTQSPSSLSASVGDRVTITCRSSQTITNYLNWYQQRPGKAPKLLIYAASSLQSGVPSRFSGSGSGTDFTLTISSLQPEDFATYYCQQSYSTPPITFGQGTKLEIKR — recorded t½ pH 7.4/t½ pH 5.5 = 0.5

Entry H4H25704N (antibody, V domains shown) VH: QVQLVESGGGVVQSGRSLRLSCAASGFTFIYYGMHWVRQAPGKGLEWVAVISYDGSDRYYADSVKGRFTISRDDSKNTLYLQMNSLRPEDTAVYYCAKDRGGRFDYWGQGTLVTVSS VL: EIVLTQSPGTLSLSPGERATLSCRASQSVNNNYLAWYQQKPGQAPRLLIYGASSRATGIPDRFGGGGSGTDFTLTISRLEPEDFAVYYCQRYGNSPLTFGGGTKVEIK — recorded t½ pH 7.4/t½ pH 5.5 = 0.9
